System: PPARg:RXRa IVT, anti-PPARg (NR concentration 270 nM, RXRa partner concentration 90 nM)
Run description: PBM binding z-score (relative to random genomic background probes); higher = stronger binding; sequences stand for … in GC…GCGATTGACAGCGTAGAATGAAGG
Label scheme for PBM binding z-score: lower than 2 is NOT MET, 2 and above is MET.

Residues: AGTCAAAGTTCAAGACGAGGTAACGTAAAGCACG
Label class: MET
--
Residues: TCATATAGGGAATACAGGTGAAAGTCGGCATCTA
Label class: MET
--
Residues: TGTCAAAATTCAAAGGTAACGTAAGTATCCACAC
Label class: NOT MET
--
Residues: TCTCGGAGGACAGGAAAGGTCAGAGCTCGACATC
Label class: NOT MET
--
Residues: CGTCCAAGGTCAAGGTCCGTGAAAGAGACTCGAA
Label class: MET
--
Residues: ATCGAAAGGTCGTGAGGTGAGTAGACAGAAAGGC
Label class: MET
--
Residues: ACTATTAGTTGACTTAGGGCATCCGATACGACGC
Label class: NOT MET
--
Residues: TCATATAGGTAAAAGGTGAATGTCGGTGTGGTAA
Label class: MET
--
Residues: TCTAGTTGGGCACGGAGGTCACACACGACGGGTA
Label class: MET
--
Residues: GCGACTGGGGAAAAGCAGGTTACCATAAGGTTGG
Label class: NOT MET
--
Residues: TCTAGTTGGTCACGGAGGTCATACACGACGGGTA
Label class: MET
--
Residues: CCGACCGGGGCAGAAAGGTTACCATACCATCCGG
Label class: NOT MET
--
Residues: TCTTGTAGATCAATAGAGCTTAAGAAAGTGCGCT
Label class: NOT MET
--
Residues: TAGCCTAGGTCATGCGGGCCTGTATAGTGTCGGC
Label class: MET
--
Residues: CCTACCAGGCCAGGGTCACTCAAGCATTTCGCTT
Label class: NOT MET
--
Residues: TAGCCTTGGTCATGGGCCAGTATACCACGCGAAC
Label class: NOT MET
--
Residues: TCTTGTAGATCAGCAGGTAAAGAAAGCTGGCCAA
Label class: NOT MET
--
Residues: CGAACTAGGTCAAGGACAGGGAATCTCCGCACGC
Label class: MET
--
Residues: TCTTATAGATCAAAGGTTAAGAAAGCCGAAGCCT
Label class: MET
--
Residues: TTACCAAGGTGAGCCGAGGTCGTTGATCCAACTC
Label class: MET
--
Residues: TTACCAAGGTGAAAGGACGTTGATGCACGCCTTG
Label class: MET
--
Residues: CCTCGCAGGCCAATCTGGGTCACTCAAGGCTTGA
Label class: MET
--
Residues: GCTCGGATGACAAGGTCAGAGCTTTGTCCGTAGA
Label class: NOT MET
--
Residues: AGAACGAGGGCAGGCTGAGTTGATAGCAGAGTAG
Label class: NOT MET
--
Residues: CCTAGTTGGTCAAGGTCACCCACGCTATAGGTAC
Label class: MET
--
Residues: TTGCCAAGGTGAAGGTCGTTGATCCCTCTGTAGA
Label class: MET

---

System: VDR:RXRa (NR concentration 270 nM, RXRa partner concentration 90 nM)
Run description: PBM binding z-score (relative to random genomic background probes); higher = stronger binding; sequences stand for … in GC…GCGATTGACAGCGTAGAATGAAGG
Would you please tag the item YES when its PBM binding z-score is 1 or above, and NO when it is below?

Residues: ATATGTAGGTTACATCCGGGTCATTCAGGCTATG
Label class: YES
--
Residues: ACTATTAGTTGAGACGAGGGCATCCGATAGGTTG
Label class: NO
--
Residues: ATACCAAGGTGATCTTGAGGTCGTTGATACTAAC
Label class: YES
--
Residues: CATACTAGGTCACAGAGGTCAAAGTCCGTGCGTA
Label class: YES
--
Residues: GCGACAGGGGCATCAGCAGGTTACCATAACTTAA
Label class: NO
--
Residues: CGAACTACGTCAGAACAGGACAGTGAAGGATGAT
Label class: NO
--
Residues: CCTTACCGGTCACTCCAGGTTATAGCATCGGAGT
Label class: YES
--
Residues: ATATGTAGGTTAGCTAGGGTCATTCAGACTAGGC
Label class: YES
--
Residues: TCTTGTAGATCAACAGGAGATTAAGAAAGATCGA
Label class: NO
--
Residues: CGTCCCAGGTCATAGGAGGTCAGTGAAGACAGAT
Label class: YES
--
Residues: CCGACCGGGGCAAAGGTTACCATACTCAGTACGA
Label class: YES
--
Residues: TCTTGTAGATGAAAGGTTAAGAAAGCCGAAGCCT
Label class: YES

---

Tested on: LXRb:RXRa (NR concentration 270 nM, RXRa partner concentration 90 nM)
Run description: PBM binding z-score (relative to random genomic background probes); higher = stronger binding; sequences stand for … in GC…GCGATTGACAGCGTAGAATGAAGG
Label T for high-side PBM binding z-score (at or above 2) and F for low-side PBM binding z-score (below it).

Residues: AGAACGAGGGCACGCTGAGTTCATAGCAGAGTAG
Label class: F
--
Residues: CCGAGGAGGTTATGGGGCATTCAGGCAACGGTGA
Label class: F
--
Residues: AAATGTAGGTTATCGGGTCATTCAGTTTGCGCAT
Label class: T
--
Residues: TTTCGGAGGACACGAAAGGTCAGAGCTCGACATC
Label class: T
--
Residues: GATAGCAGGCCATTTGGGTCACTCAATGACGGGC
Label class: F
--
Residues: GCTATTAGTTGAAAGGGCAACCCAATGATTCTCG
Label class: F
--
Residues: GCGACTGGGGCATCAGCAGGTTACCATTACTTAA
Label class: F
--
Residues: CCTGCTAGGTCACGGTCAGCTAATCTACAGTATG
Label class: T
--
Residues: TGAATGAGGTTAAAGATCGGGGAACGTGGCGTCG
Label class: F
--
Residues: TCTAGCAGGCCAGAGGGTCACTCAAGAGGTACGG
Label class: F
--
Residues: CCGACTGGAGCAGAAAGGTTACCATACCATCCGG
Label class: F
--
Residues: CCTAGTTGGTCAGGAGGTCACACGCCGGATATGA
Label class: T

---

Reported values of PBM binding z-score for individual entries
Tested on: RXRa homodimer (NR concentration 180 nM)
Run description: PBM binding z-score (relative to random genomic background probes); higher = stronger binding; sequences stand for … in GC…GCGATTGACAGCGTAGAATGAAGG

Residues: GATACAGGGTCAAGGCCAGACTACGCGTATTGAT
Experimental target: RXRa homodimer (NR concentration 180 nM)
PBM binding z-score: 5.73

Residues: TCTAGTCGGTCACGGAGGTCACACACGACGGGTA
Experimental target: RXRa homodimer (NR concentration 180 nM)
PBM binding z-score: 5.17

Residues: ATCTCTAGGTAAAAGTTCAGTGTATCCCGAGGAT
Experimental target: RXRa homodimer (NR concentration 180 nM)
PBM binding z-score: 1.49

Residues: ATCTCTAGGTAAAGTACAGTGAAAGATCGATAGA
Experimental target: RXRa homodimer (NR concentration 180 nM)
PBM binding z-score: 0.366

Residues: TCTGCTAGGTCAGTTGGTCAGTTAACGAGCTGCC
Experimental target: RXRa homodimer (NR concentration 180 nM)
PBM binding z-score: 0.575

Residues: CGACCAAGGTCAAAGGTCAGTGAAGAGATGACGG
Experimental target: RXRa homodimer (NR concentration 180 nM)
PBM binding z-score: 10.4

Residues: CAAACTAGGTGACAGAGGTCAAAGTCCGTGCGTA
Experimental target: RXRa homodimer (NR concentration 180 nM)
PBM binding z-score: 6.14

Residues: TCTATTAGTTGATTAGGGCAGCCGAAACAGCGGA
Experimental target: RXRa homodimer (NR concentration 180 nM)
PBM binding z-score: 0.439

Residues: ATCTCTAGTTAAAGATAGTTCAGTGAATGCAAAT
Experimental target: RXRa homodimer (NR concentration 180 nM)
PBM binding z-score: 0.579

Residues: AATACAGGGTCACTACGCCAGAGTAGGTACGAAT
Experimental target: RXRa homodimer (NR concentration 180 nM)
PBM binding z-score: 5.7

Residues: TTACCCAGGTGAGCTGAGGTCGTTGATCCAACTC
Experimental target: RXRa homodimer (NR concentration 180 nM)
PBM binding z-score: 1.19

Residues: TCAGACATGTGAAGGTAACTCAGGTACGCAGTCG
Experimental target: RXRa homodimer (NR concentration 180 nM)
PBM binding z-score: 0.749
